tested.target: RPS6KB1 (p70S6K) (Homo sapiens, UniProt P23443)
Sequence (P23443 whole entry): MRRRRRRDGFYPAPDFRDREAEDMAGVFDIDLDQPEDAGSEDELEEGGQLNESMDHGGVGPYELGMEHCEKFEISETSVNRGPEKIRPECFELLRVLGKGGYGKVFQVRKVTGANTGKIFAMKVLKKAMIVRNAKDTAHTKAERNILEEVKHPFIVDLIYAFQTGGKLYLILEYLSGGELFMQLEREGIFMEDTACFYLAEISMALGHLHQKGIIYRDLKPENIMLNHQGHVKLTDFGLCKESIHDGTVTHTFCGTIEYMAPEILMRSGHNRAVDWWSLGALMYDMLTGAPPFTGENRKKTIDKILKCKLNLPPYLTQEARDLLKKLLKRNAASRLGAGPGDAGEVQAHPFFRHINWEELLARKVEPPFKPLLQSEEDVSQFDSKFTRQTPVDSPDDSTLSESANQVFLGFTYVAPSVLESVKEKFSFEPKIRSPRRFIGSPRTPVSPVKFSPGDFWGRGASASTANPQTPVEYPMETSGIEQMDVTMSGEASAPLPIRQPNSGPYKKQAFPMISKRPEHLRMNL
method.description: Z'-LYTE SelectScreen biochemical kinase assay RPS6KB1 (p70S6K)
condition.info: read-out: % Inhibition mean RPS6KB1 (p70S6K)
endpoint.label: inhibition at 10 µM (%)

Worked examples, 5 compounds total:
CCCCCn1ncc2c1CCC(Nc1nc3c(-c4ccc(F)cc4C)cccn3n1)C2 (centres unmarked): 12
CCn1ncc2c1CC[C@H](Nc1nc3c(-c4ccc(F)c(Cl)c4)cccn3n1)C2: 22
CCc1nn(C)c2c1CCC(Nc1nc3c(-c4ccc(F)cc4C)cccn3n1)C2 (centres unmarked): 1
CCn1ncc2c1CCC(Nc1nc3c(-c4cccnc4OC)cccn3n1)C2 (centres unmarked): 31
CCCCn1ncc2c1CCC(Nc1nc3c(-c4ccc(F)cc4C)cccn3n1)C2 (centres unmarked): 6

I. CCn1ncc2c1CCC(Nc1nc3c(-c4cccc(Cl)c4)cccn3n1)C2 (centres unmarked)
II. CCn1ncc2c1CC[C@@H](Nc1nc3c(-c4ccc(F)c(Cl)c4)cccn3n1)C2
III. CCn1ncc2c1CCC(Nc1nc3c(-c4cncc(OC)c4)cccn3n1)C2 (centres unmarked)
Sort by inhibition at 10 µM, descending. Reply: labels, ordered per the request.
I, II, III

----------
tested.target: FGFR2 (Homo sapiens)
Sequence (P21802 22-821): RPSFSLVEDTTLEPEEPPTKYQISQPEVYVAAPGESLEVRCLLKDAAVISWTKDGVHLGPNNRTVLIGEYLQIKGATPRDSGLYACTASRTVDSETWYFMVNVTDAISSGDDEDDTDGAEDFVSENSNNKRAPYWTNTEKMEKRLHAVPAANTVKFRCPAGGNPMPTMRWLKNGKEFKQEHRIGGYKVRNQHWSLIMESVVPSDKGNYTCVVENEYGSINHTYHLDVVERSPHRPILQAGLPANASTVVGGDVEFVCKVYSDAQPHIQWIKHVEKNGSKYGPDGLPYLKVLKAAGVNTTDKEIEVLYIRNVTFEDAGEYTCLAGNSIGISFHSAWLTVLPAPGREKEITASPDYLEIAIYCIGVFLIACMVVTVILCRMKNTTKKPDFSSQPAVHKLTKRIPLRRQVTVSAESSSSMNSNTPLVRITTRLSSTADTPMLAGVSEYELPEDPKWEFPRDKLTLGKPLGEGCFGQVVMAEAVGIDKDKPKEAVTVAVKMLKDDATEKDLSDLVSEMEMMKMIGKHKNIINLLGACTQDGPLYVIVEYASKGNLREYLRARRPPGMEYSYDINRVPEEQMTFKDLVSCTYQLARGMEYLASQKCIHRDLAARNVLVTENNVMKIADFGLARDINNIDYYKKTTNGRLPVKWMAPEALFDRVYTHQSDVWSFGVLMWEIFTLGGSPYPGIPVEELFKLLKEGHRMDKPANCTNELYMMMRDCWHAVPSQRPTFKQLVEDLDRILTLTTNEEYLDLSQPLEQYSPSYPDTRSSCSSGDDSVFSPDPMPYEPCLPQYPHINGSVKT
method.description: Z'-LYTE SelectScreen biochemical kinase assay FGFR2
condition.info: read-out: % Inhibition mean FGFR2
endpoint.label: inhibition at 10 µM (%)

CCn1ncc2c1CC[C@@H](Nc1nc3c(-c4ccc(F)c(Cl)c4)cccn3n1)C2 [Example R-61]: 12

I. Cc1cc(F)ccc1-c1cccn2nc(NC3CCc4c(cnn4C)C3)nc12 (stereo not drawn) [Example 10]
II. CCCCn1ncc2c1CCC(Nc1nc3c(-c4ccc(F)cc4C)cccn3n1)C2 (stereo not drawn) [Example 46]
Which gives the smaller inhibition at 10 µM number: I or II ? Indicate your choice by writing its label.
I

----------
tested.target: PTK2 (FAK) (Homo sapiens, UniProt Q05397)
Sequence (Q05397 whole entry): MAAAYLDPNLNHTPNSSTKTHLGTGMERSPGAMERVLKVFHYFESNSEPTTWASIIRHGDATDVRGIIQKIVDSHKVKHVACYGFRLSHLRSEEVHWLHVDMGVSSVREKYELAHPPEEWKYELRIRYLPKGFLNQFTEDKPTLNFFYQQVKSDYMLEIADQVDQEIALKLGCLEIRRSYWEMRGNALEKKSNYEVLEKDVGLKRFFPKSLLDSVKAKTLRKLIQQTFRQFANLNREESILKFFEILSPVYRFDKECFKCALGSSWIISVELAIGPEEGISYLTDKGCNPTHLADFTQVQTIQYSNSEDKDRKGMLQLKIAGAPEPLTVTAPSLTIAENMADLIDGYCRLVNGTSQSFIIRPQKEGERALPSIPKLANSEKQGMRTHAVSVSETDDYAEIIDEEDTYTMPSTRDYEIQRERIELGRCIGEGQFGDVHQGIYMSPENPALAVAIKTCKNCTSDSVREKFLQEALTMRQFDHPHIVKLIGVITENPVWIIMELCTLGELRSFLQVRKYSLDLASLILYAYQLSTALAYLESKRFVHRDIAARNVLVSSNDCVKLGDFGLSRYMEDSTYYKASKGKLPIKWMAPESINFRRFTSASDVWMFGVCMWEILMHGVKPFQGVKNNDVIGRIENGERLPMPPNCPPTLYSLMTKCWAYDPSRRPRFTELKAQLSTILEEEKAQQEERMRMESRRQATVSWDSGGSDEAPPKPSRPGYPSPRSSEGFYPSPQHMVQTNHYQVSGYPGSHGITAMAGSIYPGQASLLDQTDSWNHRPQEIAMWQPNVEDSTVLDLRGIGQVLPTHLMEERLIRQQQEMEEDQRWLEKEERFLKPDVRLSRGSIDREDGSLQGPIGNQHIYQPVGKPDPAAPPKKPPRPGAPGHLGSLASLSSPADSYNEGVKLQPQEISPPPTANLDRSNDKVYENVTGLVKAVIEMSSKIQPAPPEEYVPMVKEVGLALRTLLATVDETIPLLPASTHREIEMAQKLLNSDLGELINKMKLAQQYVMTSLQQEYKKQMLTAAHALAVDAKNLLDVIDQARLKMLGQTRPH
method.description: Z'-LYTE SelectScreen biochemical kinase assay PTK2 (FAK)
condition.info: read-out: % Inhibition mean PTK2 (FAK)
endpoint.label: inhibition at 10 µM (%)

Worked examples, 2 compounds total:
CCn1ncc2c1CCC(Nc1nc3c(-c4ccc(OC)nc4)cccn3n1)C2 (stereo not shown): 30
CCn1nc(Cl)c2c1CCC(Nc1nc3c(-c4ccc(F)cc4C)cccn3n1)C2 (stereo not shown): 24

I. CCc1nn(C)c2c1CCC(Nc1nc3c(-c4ccc(F)cc4C)cccn3n1)C2 (stereo not shown)
II. CCn1ncc2c1CCC(Nc1nc3c(-c4cccnc4OC)cccn3n1)C2 (stereo not shown)
Which gives the smaller inhibition at 10 µM number: I or II ? Indicate your choice by writing its label.
I
(I: 14%, II: 24%)

----------
tested.target: ABL1 (Homo sapiens, UniProt P00519)
Sequence (P00519 whole entry): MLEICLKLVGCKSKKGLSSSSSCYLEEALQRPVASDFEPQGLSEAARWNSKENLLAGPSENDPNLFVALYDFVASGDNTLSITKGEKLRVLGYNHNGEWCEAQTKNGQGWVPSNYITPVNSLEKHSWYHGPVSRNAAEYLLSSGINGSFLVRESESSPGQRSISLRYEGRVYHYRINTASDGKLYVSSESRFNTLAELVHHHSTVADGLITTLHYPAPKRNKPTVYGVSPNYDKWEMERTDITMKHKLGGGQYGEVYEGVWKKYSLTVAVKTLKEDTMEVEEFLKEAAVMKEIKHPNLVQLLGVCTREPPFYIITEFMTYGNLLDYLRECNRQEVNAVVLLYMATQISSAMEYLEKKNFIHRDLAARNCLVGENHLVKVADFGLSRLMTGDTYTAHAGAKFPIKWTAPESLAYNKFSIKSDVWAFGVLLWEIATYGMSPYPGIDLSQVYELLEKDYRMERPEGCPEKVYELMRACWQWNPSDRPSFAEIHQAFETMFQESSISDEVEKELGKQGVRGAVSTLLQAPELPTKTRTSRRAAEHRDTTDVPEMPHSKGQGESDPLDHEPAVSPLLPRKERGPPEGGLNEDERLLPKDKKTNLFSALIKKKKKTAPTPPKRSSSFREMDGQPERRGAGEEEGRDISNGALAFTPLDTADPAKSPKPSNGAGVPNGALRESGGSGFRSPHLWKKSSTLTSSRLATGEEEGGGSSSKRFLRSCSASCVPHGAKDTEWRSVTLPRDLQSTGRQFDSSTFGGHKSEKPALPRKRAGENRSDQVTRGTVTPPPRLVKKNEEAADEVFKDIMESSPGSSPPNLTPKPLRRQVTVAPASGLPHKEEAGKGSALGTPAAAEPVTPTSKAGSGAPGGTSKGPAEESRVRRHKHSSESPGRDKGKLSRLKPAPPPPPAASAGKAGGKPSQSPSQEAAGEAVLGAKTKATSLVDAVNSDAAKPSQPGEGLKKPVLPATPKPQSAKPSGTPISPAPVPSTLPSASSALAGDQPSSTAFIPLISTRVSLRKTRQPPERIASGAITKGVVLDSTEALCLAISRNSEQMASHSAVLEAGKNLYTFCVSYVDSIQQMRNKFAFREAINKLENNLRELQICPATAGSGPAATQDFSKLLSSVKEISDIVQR
method.description: Z'-LYTE SelectScreen biochemical kinase assay ABL1
condition.info: 10 μmolar compound concentration; ATP at Km app; read-out: ABL1 inhibition
From the text: Thermo Fisher Scientific SelectScreen™ Biochemical Kinase Profiling Service Z′-LYTE™ Screening Protocol and Assay Conditions Assay Theory The […] biochemical assay employs a fluorescence-based, coupled-enzyme format and is based on the differential sensitivity of phosphorylated and non-phosphorylated peptides to proteolytic cleavage. […] Both cleaved and uncleaved FRET-peptides contribute to the fluorescence signals and therefore to the Emission Ratio. […]
Entries and their inhibition at 10 µM

Worked examples, 8 compounds total:
CCn1ncc2c1CCC(Nc1nc3c(-c4cccnc4)cccn3n1)C2 (stereo not drawn) [Example 63]: < 40%
CCc1nn(C)c2c1CCC(Nc1nc3c(-c4ccc(F)cc4C)cccn3n1)C2 (stereo not drawn) [Example 54]: < 40%
CCCn1ncc2c1CCC(Nc1nc3c(-c4ccc(F)cc4C)cccn3n1)C2 (stereo not drawn) [Example 43]: < 40%
CCn1ncc2c1CCC(Nc1nc3c(-c4cccnc4OC)cccn3n1)C2 (stereo not drawn) [Example 69]: < 40%
CCn1ncc2c1CCC(Nc1nc3c(-c4ccccc4)cccn3n1)C2 (stereo not drawn) [Example 57]: < 40%
CCn1ncc2c1C(C)CC(Nc1nc3c(-c4cc(F)c(F)c(F)c4)cccn3n1)C2 (stereo not drawn) [Example 49]: < 40%
CCn1nc(Cl)c2c1CCC(Nc1nc3c(-c4ccc(F)cc4C)cccn3n1)C2 (stereo not drawn) [Example 48]: < 40%
CCn1ncc2c1CC[C@@H](Nc1nc3c(-c4ccc(F)cc4C)cccn3n1)C2 [Example R-42]: < 40%

Proceeding to the next compound to report its inhibition at 10 µM.
Determine from records and report inhibition at 10 µM for CCn1ncc2c1CCC(Nc1nc3c(-c4ccccc4C)cccn3n1)C2 (stereo not drawn) [Example 56]
< 40%

The values you see were collected from patent US11339161B2.
